Test system: NCI-H522 lung
Assay protocol: NCI tumour cell line growth inhibition, 48 h
*1 amine or outer side, *2 acyl side, *3 side chain or, on linkers, in order; H or OH if unused. Where a SMILES comes first, the peptide text is derived from it. Bridges are numbered along the chain shown (N, C = ends). Roman numbers before positions name the chains, in order. X23 = CCCCCCCCCCCCCCC(=O)NC(CCCCN[*:2])C(=O)CN1CCCC1C(=O)[*:1]
Measurement kind: TGI (µM)
Write down the numeric answer in µM and omit the unit.

[Q] Report TGI for CCCCCCCCCCCCCCC(=O)NC(CCCCNC(=O)C1CCCN1C(=O)C(CCCCN)NC(=O)C(CCCCN)NC(=O)C(CCCCN)NC(=O)C(CCCNC(=N)N)NC(=O)C(CCCCN)NC(=O)C(N)C(C)C)C(=O)CN1CCCC1C(=O)NCC(=O)NC(Cc1ccccc1)C(=O)N1CCCC1C(=O)NC(CO)C(=O)NC(Cc1ccc(O)cc1)C(=O)NC(CCCCN)C(=O)NC(CC(C)C)C(=O)NC(CCCNC(=N)N)C(=O)N1CCCC1C(=O)NCC(N)=O (configuration not stated) (I: GFPSYKLRPG-NH2 / II: H-VKRKKKP; linker I:N-II:C via X23; configuration not given here) please.
[A] 66.3

[Q] Field entry: CC1C(O)[C@@]2(OC[C@@]34C(=O)CC5(O)[C@H](CCC6Cc7nc8c(nc7C[C@]65C)CC5CC[C@@H]6C7=C[C@H]9O[C@@]%10(O[C@@](C)(CO)C[C@@H]%10O)C(C)[C@@]9(O)[C@]7(C)[C@@H](O)CC6[C@]5(C)C8)C3=CC[C@H]4C2C)OC1(C)C (some centres not stated)
[A] 0.083

[Q] Field entry: "Cc1cc(NS(=O)(=O)c2ccc(NC(=O)COc3ccc(-c4cc5ccccc5[nH]4)cc3)cc2)no1"
[A] 4.09

###

Test system: RPMI-8226 leukemia
Assay protocol: NCI tumour cell line growth inhibition, 48 h; in the data active = GI50 below about 0.43 µM; inactive = the rest
Pick one and only one: 1 for active, -1 for inactive

[Q] Look up the recorded call for "O=c1c(-c2ccc3c(c2)OCO3)coc2c(CO)c(O)ccc12" in this test.
[A] -1

[Q] Field entry: NC(Cc1ccc(O)cc1)C(=O)N/N=C/c1ccc(N(CCCl)CCCl)cc1 (stereo not given)
[A] -1

[Q] Field entry: "COc1ccc(Oc2nc(Nc3ccc(N4CCOCC4)cc3)ncc2NC(=O)Nc2cc(OC)cc(OC)c2)cc1"
[A] -1

[Q] Field entry: Nc1nccc2c1ncn2C1C=C(CO)C(O)C1O (stereo not given)
[A] -1

[Q] Field entry: "CCc1ccc(Oc2nccc(-c3c(-c4ccc(F)cc4)ncn3C3CCNCC3)n2)cc1"
[A] -1

[Q] Field entry: COc1cc(C2CC(=O)c3c(C)nn(-c4nc5ccccc5[nH]4)c3C2)cc(OC)c1OC (stereo not given)
[A] -1

[Q] Field entry: "COc1ccccc1N(C(C)=O)C1=C(Cl)C(=O)c2ccccc2C1=O"
[A] -1

[Q] Field entry: "N#Cc1ccc(N2Cc3cc(Cl)ccc3OC3=C2C(=O)N(Cc2ccc(F)cc2)C3=O)cc1"
[A] 1

[Q] Field entry: Nc1ncnc2c1nc(N)n2C1OC(CO)C(O)C1O (stereo not given)
[A] -1

[Q] Field entry: "O=C(N/N=C/c1ccncc1)c1ccc(C(F)(F)F)nc1Nc1cccc(C(F)(F)F)c1"
[A] -1
